- Measured target: UniProtKB Q9BGL2
- Sequence (Q9BGL2 1-230): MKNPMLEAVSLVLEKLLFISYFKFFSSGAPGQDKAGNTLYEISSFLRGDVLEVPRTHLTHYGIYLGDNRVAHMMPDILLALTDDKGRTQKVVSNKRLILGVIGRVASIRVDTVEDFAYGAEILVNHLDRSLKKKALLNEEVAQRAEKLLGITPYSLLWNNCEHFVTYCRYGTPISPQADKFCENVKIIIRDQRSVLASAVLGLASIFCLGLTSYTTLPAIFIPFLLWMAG
- Test method notes: in vitro Microsomal Assay of retinol esterification, LRAT catalyzed (retinyl laurate)
- Assay type: biochemical, bovine
- Condition summary: 100 μM test compound; solvent blank = 100% ester formation
Quantity name: % INHIBITION, LRAT (%)

[P] CC1=CC(C)C(CO)C(C)C1 (stereo not drawn) [isocyclogeraniol, reference compound]
[Q] CCC(=O)/C=C/C1C(C)=CCCC1(C)C (stereo not drawn)
[R] CCCC(O)CCC1C(C)CCCC1(C)C (stereo not drawn)
Task: Rank the listed molecules, smallest % INHIBITION, LRAT first and largest last. Please respond with the labels ordered as the question requires.
Result: P, R, Q
(P: 16%, R: 33%, Q: 77%)

###

- System: acyl CoA retinol transferase (ARAT)
- Test method notes: in vitro Microsomal Assay of retinol esterification, ARAT catalyzed (retinyl palmitate)
- Format: biochemical, bovine
- Condition summary: 100 μM test compound; solvent blank = 100% ester formation
Quantity name: % INHIBITION, ARAT (%)

Example cases with answers are listed next.
CC1=CCC(CCC(C)CO)C1(C)C (stereo not shown): 70
CC(=O)CCC1C(C)=CCCC1(C)C (stereo not drawn) [dihydro alpha ionone, reference compound]: 13
CC12CCC(CC1=O)C2(C)C (stereo not shown) [camphor, reference compound]: 0
CC12CCC(CC1)C(C)(C)O2 [eucalyptol, reference compound]: 0
CC=CC(=O)C1CCC(C)(C)C=C1C (stereo not shown): 80

[a] CCCCCCCCCCCCC/C=C/[C@@H](O)[C@H](CO)NC(C)=O
[b] Cc1ncc(C[n+]2csc(CCO)c2C)c(N)n1 [thiamine, reference compound]
[c] CC12CCC(C1)C(C)(C)C2O (stereo not shown) [fenchyl alcohol, reference compound]
[d] CC1=CC(C)C(CO)C(C)C1 (stereo not shown) [isocyclogeraniol, reference compound]
[e] CC(C)=CCCC(C)=CCCC(C)=CCO
Task: Output the entries ranked by % INHIBITION, ARAT from maximum down to minimum. Please respond with the labels ordered as the question requires.
Result: a, e, d, c, b
(a: 62%, e: 43%, d: 18%, c: 12%, b: 0%)

[A] CC(C)(O)CCCC1=CCC(C=O)CC1 (stereo not shown)
[B] COc1cc(C=O)ccc1O [vanillin, reference compound]
Task: Select one: A or B . Criterion: greater recorded % INHIBITION, ARAT. Kindly give the label for the entry you pick.
Result: A

[a] C=C(C)C1CC=C(C)C(=O)C1 (stereo not shown) [carvone, reference compound]
[b] CCC(=O)/C=C/C1C(C)=CCCC1(C)C (stereo not shown)
Task: Select one: a or b . Criterion: greater recorded % INHIBITION, ARAT. Kindly give the label for the entry you pick.
Result: b
(b: 67%, a: 0%)

###

- Measured target: lecithin retinol acyl transferase (LRAT) (Bos taurus)
- Test method notes: in vitro Microsomal Assay of retinol esterification, LRAT catalyzed (retinyl laurate)
- Type: biochemical, bovine
- Condition summary: 100 μM test compound; solvent blank = 100% ester formation
Quantity name: % INHIBITION, LRAT (%)

Example cases with answers are listed next.
CCCCCCCCCCCCC/C=C/[C@@H](O)[C@H](CO)NC(C)=O: 50
CC(=O)/C(C)=C/C1C(C)=CCCC1(C)C (stereo not shown): 38
C/C=C/C(=O)C1=C(C)C=CCC1(C)C: 79
C/C=C/C(=O)C1C(C)C=CCC1(C)C (stereo not shown): 95
CC(=O)CCC1C(C)=CCCC1(C)C (stereo not drawn) [dihydro alpha ionone, reference compound]: 18
CCCCC/C=C\C/C=C\CCCCCCCC(=O)N(CCO)CCO [Linoleamide-DEA (LODEA), Linoleamide-DEA]: 51
CC1=CCC(CCC(C)CO)C1(C)C (stereo not shown): 75
CC=CC(=O)C1CCC(C)(C)C=C1C (stereo not shown): 92

[P] CCOC(=O)C1=C(C)C=CCC1(C)C [Ethyl saffranate]
[Q] C/C=C/C(=O)C1=C(C)CCCC1(C)C
Task: Pick one, P or Q : lowest reported % INHIBITION, LRAT. Kindly give the label for the entry you pick.
Result: P
(P: 49%, Q: 92%)

###

- Test system: acyl CoA retinol transferase (ARAT)
- Test method notes: in vitro Microsomal Assay of retinol esterification, ARAT catalyzed (retinyl palmitate)
- Format: biochemical, bovine
- Condition summary: 100 μM test compound; solvent blank = 100% ester formation
Quantity name: % INHIBITION, ARAT (%)

Example cases with answers are listed next.
N[C@@H](Cc1c[nH]c2ccccc12)C(=O)O [tryptophan, reference compound]: 0
O=CC=Cc1ccccc1 [cinnamaldehyde, reference compound]: 0
O=C(NCO)N(CO)C1(CO)C(=O)NC(=O)N1CO (centres unmarked) [diazolidinyl urea, reference compound]: 0
Nc1ncnc2nc[nH]c12 [adenine, reference compound]: 0

[a] Cc1ccc(C(C)C)c(O)c1 [thymol, reference compound]
[b] CC(C)=CCC/C(C)=C/CC/C(C)=C/CC/C(C)=C/CO
Task: Pick one, a or b : lowest reported % INHIBITION, ARAT. Kindly give the label for the entry you pick.
Result: a
(a: 0%, b: 81%)
